assay-details: oral bioavailability in rats (AUC versus intravenous)
assay-conditions: rat, in vivo, po, 100 mg/kg, rats, 100 mg/kg oral, Arlacel 83
endpoint-name: AUC (ng·h/mL)
Write down the numeric answer in ng·h/mL and omit the unit.

## Input Check the records and state AUC for Nc1ccc2c(c1)[n+]([O-])c1ccccc1[n+]2[O-] [2-aminophenazine-5,10-dioxide]
## Output 2630

====

assay-details: oral bioavailability in rats (AUC versus intravenous)
assay-conditions: rat, in vivo, po, 100 mg/kg, Rats, 100 mg/kg PO, 10% Arlacel 83/Corn Oil (Table 8 footnote 3); read-out: F
endpoint-name: bioavailability

## Input Check the records and state bioavailability for Cc1ccc2c(c1)[n+]([O-])c1ccccc1[n+]2[O-] [2-methylphenazine-5,10-dioxide]
## Output ~37%

Data origin, for the record: patent US5637591A
